ASSAYED SYSTEM: LTBP-proTGFβ1: transfected human proTGFβ1 presented by endogenous LTBP1/3 of LN229 cells (human)
Sequence (P01137 30-390): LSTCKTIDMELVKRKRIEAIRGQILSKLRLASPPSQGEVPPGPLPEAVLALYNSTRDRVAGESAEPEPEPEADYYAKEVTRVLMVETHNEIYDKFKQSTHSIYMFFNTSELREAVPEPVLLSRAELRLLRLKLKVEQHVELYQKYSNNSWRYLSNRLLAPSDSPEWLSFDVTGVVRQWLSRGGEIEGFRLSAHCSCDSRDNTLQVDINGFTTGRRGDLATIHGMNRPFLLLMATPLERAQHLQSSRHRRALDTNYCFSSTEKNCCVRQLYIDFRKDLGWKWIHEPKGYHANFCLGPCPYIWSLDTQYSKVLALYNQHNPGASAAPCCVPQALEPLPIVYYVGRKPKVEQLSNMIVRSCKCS
EXPERIMENT SUMMARY: cell-based or functional assay
The following binders are listed with their measured IC50, endogenous hLTBP assay (CAGA12 luciferase) values.
ENDPOINT NAME: IC50, endogenous hLTBP assay (CAGA12 luciferase) (nM)

BINDER	UNIT	TEST VALUE
SR-AB37 (antibody, IgG1, V domains shown, Cycle 3, lineage SR-AB22) VH: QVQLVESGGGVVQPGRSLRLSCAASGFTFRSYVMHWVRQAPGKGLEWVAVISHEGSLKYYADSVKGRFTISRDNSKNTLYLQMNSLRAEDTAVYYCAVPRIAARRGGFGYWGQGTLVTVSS VL: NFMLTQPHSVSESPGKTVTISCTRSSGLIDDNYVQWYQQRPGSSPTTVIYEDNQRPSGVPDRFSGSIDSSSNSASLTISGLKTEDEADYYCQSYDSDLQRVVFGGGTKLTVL	nM	1.93
SR-AB10 (antibody, IgG1, V domains shown, Parent antibody) VH: QLQLQESGGGVVQPGRSLRLSCAASGFTFNNYPIHWVRQAPGKGLEWVAVMSYDGINKYYADSVKGRFTISRDNSKNTLYLQMNSLRAEDTAVYYCARPRIAARRGGFDYWGQGTLVTVSS VL: NFMLTQPHSVSESPGKTVTISCTRSSGNIDNNYVQWYQQRPGSSPTTVIYEDNQRPSGVPDRFSGSIDSSSNSASLTISGLKTEDEADYYCQSYDSDNQGVVFGGGTKLTVL	nM	3.64
SR-AB39 (antibody, IgG1, V domains shown, Cycle 3, lineage SR-AB22) VH: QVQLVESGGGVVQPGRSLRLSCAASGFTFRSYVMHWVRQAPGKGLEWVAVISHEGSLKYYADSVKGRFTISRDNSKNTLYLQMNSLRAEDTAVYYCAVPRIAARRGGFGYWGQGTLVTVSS VL: NFMLTQPHSVSESPGKTVTISCTRSSGLIDDNYVQWYQQRPGSSPTTVIYEDAQRPSGVPDRFSGSIDSSSNSASLTISGLKTEDEADYYCQSYDHDEQGVVFGGGTKLTVL	nM	1.01
SR-AB22 (antibody, IgG1, V domains shown, Cycle 2, lineage SR-AB14) VH: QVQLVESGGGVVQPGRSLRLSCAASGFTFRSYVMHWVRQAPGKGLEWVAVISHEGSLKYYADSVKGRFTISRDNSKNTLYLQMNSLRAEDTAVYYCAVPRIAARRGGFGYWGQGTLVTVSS VL: NFMLTQPHSVSESPGKTVTISCTRSSGNIDNNYVQWYQQRPGSSPTTVIYEDNQRPSGVPDRFSGSIDSSSNSASLTISGLKTEDEADYYCQSYDSDNQGVVFGGGTKLTVL	nM	4.62
SR-AB34 (antibody, IgG1, V domains shown, Cycle 3, lineage SR-AB22) VH: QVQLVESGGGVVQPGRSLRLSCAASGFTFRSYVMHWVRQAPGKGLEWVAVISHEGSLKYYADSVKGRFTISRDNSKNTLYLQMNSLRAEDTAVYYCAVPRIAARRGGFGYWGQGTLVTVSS VL: NFMLTQPHSVSESPGKTVTISCTRSSGNIDNNYVQWYQQRPGSSPTTVIYEDNQRPSGVPDRFSGSIDSSSNSASLTISGLKTEDEADYYCQSYDYDAQGVVFGGGTKLTVL	nM	0.909
